molecular target: Human immunodeficiency virus type 1 integrase (Human immunodeficiency virus 1, UniProt Q7ZJM1); assay: Inhibition of N-terminal His/flag-tagged HIV1 integrase expressed in Escherichia coli BL21 (DE3) incubated for 2.5 hrs by HTRF assay; conditions: read-out: EC50
Sequence (Q7ZJM1 whole entry): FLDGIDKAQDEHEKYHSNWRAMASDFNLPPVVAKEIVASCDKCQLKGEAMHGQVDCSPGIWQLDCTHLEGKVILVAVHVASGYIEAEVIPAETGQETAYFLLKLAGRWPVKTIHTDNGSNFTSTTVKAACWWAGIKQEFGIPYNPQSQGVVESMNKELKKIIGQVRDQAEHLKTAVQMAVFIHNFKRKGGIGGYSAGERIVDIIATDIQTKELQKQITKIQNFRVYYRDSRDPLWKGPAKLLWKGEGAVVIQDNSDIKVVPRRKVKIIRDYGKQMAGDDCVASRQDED
# pEC50 per record follows
Expect pEC50 as a plain number equal to -log10 of the molar concentration.

Cc1nc2ccccc2c(-c2ccccc2C#N)c1C(OC(C)(C)C)C(=O)O (configuration not stated)    4.95
Cc1nc2ccccc2c(-c2cccc(F)c2)c1C(OC(C)(C)C)C(=O)O (configuration not stated)    5.68
COc1ccc(-c2c(C(OC(C)(C)C)C(=O)O)c(C)nc3ccccc23)cc1OC (configuration not stated)    5.43
Cc1cccc(-c2c(C(OC(C)(C)C)C(=O)O)c(C)nc3ccccc23)c1 (configuration not stated)    6.02

**Query** Identify measured pEC50 corresponding to Cc1nc2ccccc2c(-c2cccc(Cl)c2)c1C(OC(C)(C)C)C(=O)O (configuration not stated)
**Result** 5.42

**Query** Identify measured pEC50 corresponding to Cc1ccc(-c2c(C(OC(C)(C)C)C(=O)O)c(C)nc3ccccc23)cc1 (configuration not stated)
**Result** 6.62

**Query** Identify measured pEC50 corresponding to CC(=O)Nc1ccc(-c2c(C(OC(C)(C)C)C(=O)O)c(C)nc3ccccc23)cc1 (configuration not stated)
**Result** 5.08

**Query** Identify measured pEC50 corresponding to COc1ccc(-c2c(C(OC(C)(C)C)C(=O)O)c(C)nc3ccccc23)cc1 (configuration not stated)
**Result** 6.64

**Query** Identify measured pEC50 corresponding to Cc1nc2ccccc2c(-c2ccc(OC(F)(F)F)cc2)c1C(OC(C)(C)C)C(=O)O (configuration not stated)
**Result** 6.46
